target: T1, cynomolgus monkey C-MET on stably transfected CHO-K1 cells (cynomolgus monkey, UniProt A0M8R7 25-1381 (Papio anubis entry)); test: flow cytometry, C-MET CHO-K1 cells
T1 construct: also called cycMET; cyno C-MET+ CHO-K1 cells
T1 sequence (A0M8R7 25-1381 S170N/I621T limits assumed): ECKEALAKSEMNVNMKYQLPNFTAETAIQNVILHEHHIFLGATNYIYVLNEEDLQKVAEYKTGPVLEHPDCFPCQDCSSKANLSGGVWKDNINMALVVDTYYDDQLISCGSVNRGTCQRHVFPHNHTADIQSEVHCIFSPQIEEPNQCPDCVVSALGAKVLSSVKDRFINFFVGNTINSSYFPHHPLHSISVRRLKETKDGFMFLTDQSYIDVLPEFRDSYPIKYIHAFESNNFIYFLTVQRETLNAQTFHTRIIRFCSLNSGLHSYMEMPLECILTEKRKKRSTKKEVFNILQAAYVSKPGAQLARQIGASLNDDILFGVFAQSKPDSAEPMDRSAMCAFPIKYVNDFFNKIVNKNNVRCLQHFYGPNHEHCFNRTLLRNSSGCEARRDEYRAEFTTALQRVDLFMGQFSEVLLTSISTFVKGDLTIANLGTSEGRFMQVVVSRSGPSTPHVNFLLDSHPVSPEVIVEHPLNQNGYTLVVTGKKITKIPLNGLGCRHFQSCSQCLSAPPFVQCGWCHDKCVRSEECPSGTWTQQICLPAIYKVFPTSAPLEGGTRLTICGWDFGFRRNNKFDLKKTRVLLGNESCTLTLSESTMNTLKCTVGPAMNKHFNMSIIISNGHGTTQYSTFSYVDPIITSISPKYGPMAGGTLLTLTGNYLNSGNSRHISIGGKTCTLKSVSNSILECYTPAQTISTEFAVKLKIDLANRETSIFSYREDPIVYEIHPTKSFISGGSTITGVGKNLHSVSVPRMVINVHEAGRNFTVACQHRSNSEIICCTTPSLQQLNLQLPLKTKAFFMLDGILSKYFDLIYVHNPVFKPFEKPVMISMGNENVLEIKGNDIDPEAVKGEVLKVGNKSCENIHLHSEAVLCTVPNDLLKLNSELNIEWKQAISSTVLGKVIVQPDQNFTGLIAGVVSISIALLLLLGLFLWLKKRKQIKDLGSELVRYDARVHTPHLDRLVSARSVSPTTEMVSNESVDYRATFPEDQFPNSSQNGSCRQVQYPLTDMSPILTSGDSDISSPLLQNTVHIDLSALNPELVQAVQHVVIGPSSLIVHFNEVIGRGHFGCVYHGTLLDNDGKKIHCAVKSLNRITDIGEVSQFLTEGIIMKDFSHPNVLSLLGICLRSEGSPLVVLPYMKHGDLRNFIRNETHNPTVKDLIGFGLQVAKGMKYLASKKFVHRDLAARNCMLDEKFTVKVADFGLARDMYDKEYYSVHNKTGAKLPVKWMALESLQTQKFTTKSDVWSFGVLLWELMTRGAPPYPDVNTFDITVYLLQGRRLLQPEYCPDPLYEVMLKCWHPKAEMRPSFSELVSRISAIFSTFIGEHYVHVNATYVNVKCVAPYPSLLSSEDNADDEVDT
Listed binders paired with reported maximum MFI, fold over Isotype IgG4 background
ASSAY METRIC: maximum MFI, fold over Isotype IgG4 background

| BINDER | ASSAY RESULT |
| --- | --- |
| 09B08 (antibody, IgG4, V domains shown) VH: QVQLVQSGAEVKKPGASVKVSCKASGYTFTSYTMHWVRQAPGQGLEWMGWINPNNGSTNYAQKFQGRVTMTRDTSTSTVYMELSSLRSEDTAVYYCARSEITTDFDYWGQGTLVTVSS VL: EIVLTQSPGTLSLSPGERATLSCRASQSVSSYANSYLHWYQQKPGQAPRLLIYRGSTRESGIPDRFSGSGSGTDFTLTISRLEPEDFAVYYCQQSKSDPLTFGGGTKVEIK | > 10 fold |
| 08G07 (antibody, human IgG4, V domains shown) VH: QVQLVQSGAEVKKPGASVKVSCKASGYTFTSYTMHWVRQAPGQGLEWMGWINPSGGLANYAQKFQGRVTMTRDTSTSTVYMELSSLRSEDTAVYYCARSEITTDFDYWGQGTLVTVSS VL: EIVLTQSPGTLSLSPGERATLSCRASQSVDSYANSYLHWYQQKPGQAPRLLIYRGSTRESGIPDRFSGSGSGTDFTLTISRLEPEDFAVYYCQQSKSEPLTFGGGTKVEIK | > 10 fold |

meta.source: patent US20260042850A1
